Molecular target: Flt-3 (Homo sapiens)
Sequence (P36888 563-993): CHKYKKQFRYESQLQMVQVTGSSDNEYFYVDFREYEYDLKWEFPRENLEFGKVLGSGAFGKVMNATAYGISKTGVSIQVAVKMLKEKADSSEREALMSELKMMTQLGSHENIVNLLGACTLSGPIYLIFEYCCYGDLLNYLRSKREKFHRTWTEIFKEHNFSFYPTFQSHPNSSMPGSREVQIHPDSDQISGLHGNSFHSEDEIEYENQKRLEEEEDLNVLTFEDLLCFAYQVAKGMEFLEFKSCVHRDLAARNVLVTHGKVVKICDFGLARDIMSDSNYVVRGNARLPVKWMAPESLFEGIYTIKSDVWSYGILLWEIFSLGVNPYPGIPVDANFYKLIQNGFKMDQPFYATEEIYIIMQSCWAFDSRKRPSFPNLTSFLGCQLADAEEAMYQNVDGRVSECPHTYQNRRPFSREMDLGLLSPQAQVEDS
pIC50: −log10 of the molar value.
METRIC NAME: pIC50

[
  {
    "COMPOUND": "CN(Cc1ccc(NC(=O)Nc2ccc(Oc3cc(N)ncn3)cc2)cc1C(F)(F)F)C(C)(C)C [Example 34a.3]",
    "METRIC NAME": "pIC50",
    "ASSAY RESULT": 6.08
  },
  {
    "COMPOUND": "Nc1nccc(Oc2ccc(NC(=O)Nc3cc(-c4ccccn4)cc(C(F)(F)F)c3)cc2)n1 [Example 52d]",
    "METRIC NAME": "pIC50",
    "ASSAY RESULT": 6.59
  },
  {
    "COMPOUND": "Cc1ncn(Cc2ccc(NC(=O)Nc3ccc(Oc4cc(N)ncn4)cc3)cc2C(F)(F)F)c1C [Example 34d.3]",
    "METRIC NAME": "pIC50",
    "ASSAY RESULT": 6.54
  },
  {
    "COMPOUND": "CC(C)(C)CN1CCN(Cc2ccc(NC(=O)Nc3ccc(Oc4cc(N)ncn4)cc3)cc2C(F)(F)F)CC1 [Example 34t.2]",
    "METRIC NAME": "pIC50",
    "ASSAY RESULT": 6.54
  },
  {
    "COMPOUND": "CC(C)N1CCN(Cc2ccc(NC(=O)Nc3ccc(Oc4cc(N)ncn4)cc3)cc2C(F)(F)F)CC1 [Example 19]",
    "METRIC NAME": "pIC50",
    "ASSAY RESULT": 6.60
  },
  {
    "COMPOUND": "CCN1CCN(Cc2ccc(NC(=O)Nc3ccc(Oc4ccnc(N)n4)cc3)cc2)CC1 [Example 51e.1]",
    "METRIC NAME": "pIC50",
    "ASSAY RESULT": 6.60
  },
  {
    "COMPOUND": "CNc1cc(Oc2ccc(NC(=O)Nc3cc(CN4CCN(C(C)C)CC4)cc(C(F)(F)F)c3)cc2)ncn1 [Example 6]",
    "METRIC NAME": "pIC50",
    "ASSAY RESULT": 6.40
  },
  {
    "COMPOUND": "CNc1cc(Oc2ccc(NC(=O)Nc3ccc(CN4CCNCC4)c(C(F)(F)F)c3)cc2)ncn1 [Example 19-2]",
    "METRIC NAME": "pIC50",
    "ASSAY RESULT": 7.10
  },
  {
    "COMPOUND": "Nc1cc(Oc2ccc(NC(=O)Nc3ccc(CN4CCCC4)c(C(F)(F)F)c3)cc2)ncn1 [Example 34j.3]",
    "METRIC NAME": "pIC50",
    "ASSAY RESULT": 6.55
  },
  {
    "COMPOUND": "CCN1CCN(Cc2ccc(NC(=O)Nc3ccc(Oc4ccnc(NC)n4)cc3)cc2C)CC1 [Example 51d.2]",
    "METRIC NAME": "pIC50",
    "ASSAY RESULT": 6.87
  },
  {
    "COMPOUND": "CCN1CCN(Cc2ccc(NC(=O)Nc3ccc(Oc4cc(N)ncn4)cc3)cc2C)CC1 [Example 34g.3]",
    "METRIC NAME": "pIC50",
    "ASSAY RESULT": 6.42
  },
  {
    "COMPOUND": "Cc1nccn1Cc1ccc(NC(=O)Nc2ccc(Oc3cc(N)ncn3)cc2)cc1C(F)(F)F [Example 34e.3]",
    "METRIC NAME": "pIC50",
    "ASSAY RESULT": 7.10
  },
  {
    "COMPOUND": "CNc1cc(Oc2ccc(NC(=O)Nc3ccc(CN4CCCC4)c(C(F)(F)F)c3)cc2)ncn1 [Example 34j.1]",
    "METRIC NAME": "pIC50",
    "ASSAY RESULT": 6.60
  },
  {
    "COMPOUND": "COc1cccc(Nc2cc(Oc3ccc(NC(=O)Nc4ccc(N5CCOCC5)c(C(F)(F)F)c4)cc3)ncn2)c1 [Example 55c]",
    "METRIC NAME": "pIC50",
    "ASSAY RESULT": 6.43
  },
  {
    "COMPOUND": "CNc1cc(Oc2ccc(NC(=O)Nc3ccc(CN4CCOCC4)c(C(F)(F)F)c3)cc2)ncn1 [Example 34k.1]",
    "METRIC NAME": "pIC50",
    "ASSAY RESULT": 6.89
  },
  {
    "COMPOUND": "NC(=O)c1cc(NC(=O)Nc2ccc(Oc3cc(N)ncn3)cc2)cc(C(F)(F)F)c1 [Example 38]",
    "METRIC NAME": "pIC50",
    "ASSAY RESULT": 6.45
  }
]
